Data origin: patent US10165776B2

Hi there, I'd appreciate the recorded herbicidal efficacy, Amaranthus retroflexus for every entry that follows.
system: Amaranthus retroflexus; experiment: Weed foliar treatment test (Test 3, 1.0 to 2.0 leaf stage); type: in vivo; conditions: 10 g a.i./10 a; foliar spray at 1.0 to 2.0 leaf stage of Digitaria ciliaris; 3 weeks at 25° C.

q: Which herbicidal efficacy, Amaranthus retroflexus value belongs to "N#Cc1cnn(-c2nn3c(c2Cl)CCCC3)c1NC(=O)Cc1ccc(F)cc1" ?
a: 10 (10: 100%)

q: Okay, and N#Cc1cnn(-c2nn3c(c2Cl)CCCC3)c1NC(=O)c1ccccc1 [Control agent 4.192, reference compound] ?
a: 4 (4: 40% to less than 50%)

q: Same read-out for "N#Cc1cnn(-c2nn3c(c2Cl)CCCC3)c1NC(=O)Cc1cccc(F)c1" ?
a: 10 (10: 100%)

q: Moving on to the next compound: "O=C(Cc1ccccc1)Nc1c([N+](=O)[O-])cnn1-c1nn2c(c1Cl)CCCC2"
a: 10 (10: 100%)
